SYSTEM_TESTED: UniProt P30561
Sequence (P30561 whole entry): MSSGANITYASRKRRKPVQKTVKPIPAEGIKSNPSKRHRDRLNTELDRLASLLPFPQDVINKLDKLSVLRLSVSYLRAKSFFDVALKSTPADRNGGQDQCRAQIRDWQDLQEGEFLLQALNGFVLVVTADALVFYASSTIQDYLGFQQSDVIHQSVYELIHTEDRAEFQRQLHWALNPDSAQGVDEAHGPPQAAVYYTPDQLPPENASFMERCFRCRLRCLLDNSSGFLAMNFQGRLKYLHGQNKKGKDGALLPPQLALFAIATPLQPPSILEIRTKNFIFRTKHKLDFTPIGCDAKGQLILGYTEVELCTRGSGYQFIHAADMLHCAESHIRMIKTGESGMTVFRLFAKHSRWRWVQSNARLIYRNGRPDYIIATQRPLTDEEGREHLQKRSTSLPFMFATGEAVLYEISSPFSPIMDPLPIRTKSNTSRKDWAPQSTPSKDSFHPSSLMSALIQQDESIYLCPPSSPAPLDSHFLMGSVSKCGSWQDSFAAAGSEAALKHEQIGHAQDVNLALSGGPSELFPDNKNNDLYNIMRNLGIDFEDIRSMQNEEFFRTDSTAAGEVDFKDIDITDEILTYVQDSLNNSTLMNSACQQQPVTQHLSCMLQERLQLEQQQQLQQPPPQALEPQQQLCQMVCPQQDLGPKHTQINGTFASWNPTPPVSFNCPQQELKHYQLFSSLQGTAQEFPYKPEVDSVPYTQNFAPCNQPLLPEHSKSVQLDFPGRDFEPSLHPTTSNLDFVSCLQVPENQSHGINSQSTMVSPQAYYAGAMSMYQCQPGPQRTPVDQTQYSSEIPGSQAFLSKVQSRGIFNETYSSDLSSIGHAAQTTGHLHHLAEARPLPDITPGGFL
TEST_METHOD_NOTES: Agonist activity at AHR in mouse HC11 cells assessed as upregulation of Cyp1a1 gene expression at 10 uM after 48 hrs by RT-PCR analysis relative to control
Format: cell-based
TEST_CONDITIONS: hc11, 48 h
// classify: if (Activity < 2%) Condition met else Condition not met

{"columns": ["COMPOUND", "SYSTEM_TESTED", "LABEL"],
 "data": [
  ["C#CCOc1ccc(-c2nc(-c3ccccc3)no2)c([N+](=O)[O-])c1", "UniProt P30561", "Condition not met"],
  ["Clc1ccc(-c2nc(-c3ccncc3)no2)c(Cl)c1", "UniProt P30561", "Condition met"],
  ["Clc1ccc(-c2nc(-c3ccncc3)no2)c(Cl)c1Cl", "UniProt P30561", "Condition met"],
  ["O=[N+]([O-])c1cc(C(F)(F)F)ccc1-c1nc(-c2ccccc2)no1", "UniProt P30561", "Condition met"],
  ["CC(=O)Oc1ccc(-c2nc(-c3ccncc3)no2)c([N+](=O)[O-])c1", "UniProt P30561", "Condition met"],
  ["FC(F)(F)c1cccc(-c2noc(-c3ccc(Cl)cc3Cl)n2)c1", "UniProt P30561", "Condition met"],
  ["COc1ccc(-c2nc(-c3ccccc3)no2)c([N+](=O)[O-])c1", "UniProt P30561", "Condition met"],
  ["C=CCOc1ccc(-c2noc(-c3ccc(Cl)cc3N)n2)cc1", "UniProt P30561", "Condition met"],
  ["COC(=O)c1cccc(-c2noc(-c3ccccc3F)n2)c1", "UniProt P30561", "Condition met"],
  ["COC(=O)Oc1ccc(-c2nc(-c3ccccc3)no2)c([N+](=O)[O-])c1", "UniProt P30561", "Condition met"],
  ["C#CCOc1ccc(-c2noc(-c3ccc(Cl)cc3[N+](=O)[O-])n2)cc1", "UniProt P30561", "Condition met"],
  ["C#CCOc1ccc(-c2noc(-c3ccc(Cl)cc3Cl)n2)cc1", "UniProt P30561", "Condition met"],
  ["COC(=O)c1cccc(-c2noc(-c3ccc(Cl)cc3Cl)n2)c1", "UniProt P30561", "Condition met"],
  ["O=[N+]([O-])c1cc(Cl)ccc1-c1nc(-c2ccncc2)no1", "UniProt P30561", "Condition not met"],
  ["O=[N+]([O-])c1cc(O)ccc1-c1nc(-c2ccccc2)no1", "UniProt P30561", "Condition met"],
  ["Clc1ccc(-c2nc(-c3ccccc3Cl)no2)c(Cl)c1", "UniProt P30561", "Condition not met"],
  ["Clc1ccc(-c2nc(-c3ccccc3)no2)c(Cl)c1", "UniProt P30561", "Condition not met"],
  ["Nc1cc(C(F)(F)F)ccc1-c1nc(-c2ccccc2)no1", "UniProt P30561", "Condition not met"],
  ["O=[N+]([O-])c1cc(F)ccc1-c1nc(-c2ccccc2)no1", "UniProt P30561", "Condition not met"],
  ["C#CCOc1ccc(-c2noc(-c3ccc(Cl)cc3N)n2)cc1", "UniProt P30561", "Condition met"],
  ["Clc1cccc(-c2noc(-c3ccc(Cl)cc3Cl)n2)c1", "UniProt P30561", "Condition met"],
  ["Nc1cc(Cl)ccc1-c1nc(-c2ccccc2)no1", "UniProt P30561", "Condition not met"],
  ["O=C(O)c1cccc(-c2noc(-c3ccccc3F)n2)c1 [ATALUREN]", "UniProt P30561", "Condition not met"],
  ["Clc1ccc(-c2nc(-c3ccccc3)no2)c(Cl)c1Cl", "UniProt P30561", "Condition not met"],
  ["Clc1ccc(-c2noc(-c3ccc(Cl)cc3Cl)n2)cc1", "UniProt P30561", "Condition not met"]
]}

Origin of values: ChEMBL document CHEMBL3259667
